Where these numbers come from: ChEMBL document CHEMBL2311459

assay: AUC in dog at 5 mg/kg, po; assay type: ADME, organism-based, Canis lupus familiaris; design: dose 5 mg/kg, route oral; settings: plasma
Overview of reported AUC across a group of compounds:
// note: answer is a bare numeric in ng·h/mL

Below, 2 compounds whose answers are already recorded.
CNC(=O)c1c(O)c2ncc(Cc3ccc(F)cc3)cc2n(C)c1=O
13200
C[C@@H](CO)NC(=O)c1c(O)c2ncc(Cc3ccc(F)cc3)cc2n(C)c1=O
1120

Look at this compound and give its reported AUC. `COCCNC(=O)c1c(O)c2ncc(Cc3ccc(F)cc3)cc2n(C)c1=O` 1240

* * *

assay: AUC (0 to 24 hrs) in cynomolgus monkey at 5 mg/kg, po; format: ADME, organism-based, Macaca fascicularis; set-up: time < 24 hr, dose 5 mg/kg, route oral; conditions: plasma
readoutName: AUC(0-t) at 24 h
Be sure to follow the number with its unit.

Look at this compound and give its reported AUC(0-t) at 24 h. `CNC(=O)c1c(O)c2ncc(Cc3ccc(F)cc3)cc2n(C)c1=O` 38600 ng·h/mL
